ASSAY_INFO: Plasma clearance in rat at 1 mg/kg, iv or 2 mg/kg, po
Format: ADME, organism-based
clearance strictly under 20 mL/min/kg means class 1; at 20 mL/min/kg or over means class 0.

These solved cases illustrate the format of a correct answer.
C[C@@H](C(=O)Nc1ccc(C[C@@H]2CC[C@H]([C@H](O)c3cccnc3)N2)cc1)n1ncccc1=O | class 1
C[C@@H](C(=O)Nc1ccc(C[C@@H]2CC[C@H]([C@H](O)c3ccccc3)N2)cc1)n1ncccc1=O | class 0

Does this compound meet the criterion clearance < 20 mL/min/kg? `O=C(Nc1ccc(C[C@@H]2CC[C@H]([C@H](O)c3ccccc3)N2)cc1)[C@@H]1CCc2cccc(=O)n21`
class 0

Problem: For the compound `O=C(Nc1ccc(C[C@@H]2CC[C@H]([C@H](O)c3ccccc3)N2)cc1)[C@@H]1CCc2nccc(=O)n21` , is clearance under 20 mL/min/kg?
class 1

Consider the compound `O=C(Cn1cccnc1=O)Nc1ccc(C[C@@H]2CC[C@H]([C@H](O)c3ccccc3)N2)cc1` . Is its clearance strictly less than 20 mL/min/kg?
class 0

Consider `O=C(Cn1ncccc1=O)Nc1ccc(C[C@@H]2CC[C@H]([C@H](O)c3ccccc3)N2)cc1` . Does its clearance lie strictly below 20 mL/min/kg?
class 0

----------
# Lookup of reported remaining at 24 h keyed by entry
ASSAY_INFO: Stability in human plasma assessed as parent compound remaining at 24 hrs by LC-MS analysis
Assay type: ADME, cell-free
DETAILS: read-out: Stability
Please reply with the bare figure in % and do not write the unit itself.

O=C(Nc1ccc(C[C@@H]2CC[C@H]([C@H](O)c3cccnc3)N2)cc1)[C@@H]1CCc2ccnn21 | 0
C[C@@H](C(=O)Nc1ccc(C[C@@H]2CC[C@H]([C@H](O)c3ccccc3)N2)cc1)n1ncccc1=O | 100
O=C(Cn1ncccc1=O)Nc1ccc(C[C@@H]2CC[C@H]([C@H](O)c3ccccc3)N2)cc1 | 26

Report measured remaining at 24 h; entry is O=C(Nc1ccc(C[C@@H]2CC[C@H]([C@H](O)c3ccccc3)N2)cc1)[C@@H]1CCc2nccc(=O)n21 [VIBEGRON]
100

Return value of remaining at 24 h for input `O=C(Nc1ccc(C[C@@H]2CC[C@H]([C@H](O)c3ccccc3)N2)cc1)[C@@H]1CCc2cccc(=O)n21` , no commentary.
100

Answer with the recorded remaining at 24 h for the compound listed here: `O=C(Nc1ccc(C[C@@H]2CC[C@H]([C@H](O)c3cccnc3)N2)cc1)[C@@H]1CCc2scnc21`
1

----------
Reported pIC50 for target or system Cytochrome P450 2C9 (Homo sapiens), by entry.
pIC50: −log10 of the molar value.

Worked examples follow.
O=C(Cn1cnc2ccccc2c1=O)Nc1ccc(C[C@@H]2CC[C@H]([C@H](O)c3ccccc3)N2)cc1 | < 4.00
O=S(=O)(Nc1ccc(CCNC[C@H](O)c2cccnc2)cc1)c1ccc(-c2nc(-c3ccc(C(F)(F)F)cc3)cs2)cc1 | 4.62

// moving on: another record for pIC50
Fetch value of pIC50 on Cytochrome P450 2C9 (Homo sapiens) for `O=C(Cn1ncccc1=O)Nc1ccc(C[C@@H]2CC[C@H]([C@H](O)c3ccccc3)N2)cc1` .
Sequence (P11712 whole entry): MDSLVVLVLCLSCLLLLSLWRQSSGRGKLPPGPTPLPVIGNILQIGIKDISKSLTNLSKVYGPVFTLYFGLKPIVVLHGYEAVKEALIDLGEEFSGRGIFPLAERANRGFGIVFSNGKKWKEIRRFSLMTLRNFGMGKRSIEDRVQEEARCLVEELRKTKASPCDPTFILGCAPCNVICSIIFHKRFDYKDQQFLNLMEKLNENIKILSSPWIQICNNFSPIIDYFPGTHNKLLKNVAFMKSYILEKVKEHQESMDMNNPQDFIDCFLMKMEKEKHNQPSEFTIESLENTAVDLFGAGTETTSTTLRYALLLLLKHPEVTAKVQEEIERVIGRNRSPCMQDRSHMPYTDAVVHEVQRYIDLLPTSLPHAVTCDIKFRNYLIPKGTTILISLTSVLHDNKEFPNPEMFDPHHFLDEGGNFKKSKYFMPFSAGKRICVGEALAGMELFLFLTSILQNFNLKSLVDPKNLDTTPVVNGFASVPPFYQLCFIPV
< 4.00

----------
System: Canis familiaris
ASSAY_INFO: Unbound clearance in dog at 0.5 mg/kg, iv or 2 mg/kg, po
Type: ADME, organism-based, Canis lupus familiaris
DETAILS: in vivo
OUTCOME_MEASURE: CL free (mL/min/kg)
Give your result in mL/min/kg as a bare value.

Previously resolved entries follow.
C[C@@H](C(=O)Nc1ccc(C[C@@H]2CC[C@H]([C@H](O)c3ccccc3)N2)cc1)n1ncccc1=O | 59
O=C(Cn1ncccc1=O)Nc1ccc(C[C@@H]2CC[C@H]([C@H](O)c3ccccc3)N2)cc1 | 15

Read the next record carefully.
Return the recorded CL free value; entry: `O=C(Nc1ccc(C[C@@H]2CC[C@H]([C@H](O)c3ccccc3)N2)cc1)[C@@H]1CCc2nccc(=O)n21`
37

----------
Some molecules, each annotated with its measured IC50.
ASSAY_TARGET: Voltage-dependent L-type calcium channel subunit alpha-1C (Homo sapiens, UniProt Q13936)
Sequence (Q13936 whole entry): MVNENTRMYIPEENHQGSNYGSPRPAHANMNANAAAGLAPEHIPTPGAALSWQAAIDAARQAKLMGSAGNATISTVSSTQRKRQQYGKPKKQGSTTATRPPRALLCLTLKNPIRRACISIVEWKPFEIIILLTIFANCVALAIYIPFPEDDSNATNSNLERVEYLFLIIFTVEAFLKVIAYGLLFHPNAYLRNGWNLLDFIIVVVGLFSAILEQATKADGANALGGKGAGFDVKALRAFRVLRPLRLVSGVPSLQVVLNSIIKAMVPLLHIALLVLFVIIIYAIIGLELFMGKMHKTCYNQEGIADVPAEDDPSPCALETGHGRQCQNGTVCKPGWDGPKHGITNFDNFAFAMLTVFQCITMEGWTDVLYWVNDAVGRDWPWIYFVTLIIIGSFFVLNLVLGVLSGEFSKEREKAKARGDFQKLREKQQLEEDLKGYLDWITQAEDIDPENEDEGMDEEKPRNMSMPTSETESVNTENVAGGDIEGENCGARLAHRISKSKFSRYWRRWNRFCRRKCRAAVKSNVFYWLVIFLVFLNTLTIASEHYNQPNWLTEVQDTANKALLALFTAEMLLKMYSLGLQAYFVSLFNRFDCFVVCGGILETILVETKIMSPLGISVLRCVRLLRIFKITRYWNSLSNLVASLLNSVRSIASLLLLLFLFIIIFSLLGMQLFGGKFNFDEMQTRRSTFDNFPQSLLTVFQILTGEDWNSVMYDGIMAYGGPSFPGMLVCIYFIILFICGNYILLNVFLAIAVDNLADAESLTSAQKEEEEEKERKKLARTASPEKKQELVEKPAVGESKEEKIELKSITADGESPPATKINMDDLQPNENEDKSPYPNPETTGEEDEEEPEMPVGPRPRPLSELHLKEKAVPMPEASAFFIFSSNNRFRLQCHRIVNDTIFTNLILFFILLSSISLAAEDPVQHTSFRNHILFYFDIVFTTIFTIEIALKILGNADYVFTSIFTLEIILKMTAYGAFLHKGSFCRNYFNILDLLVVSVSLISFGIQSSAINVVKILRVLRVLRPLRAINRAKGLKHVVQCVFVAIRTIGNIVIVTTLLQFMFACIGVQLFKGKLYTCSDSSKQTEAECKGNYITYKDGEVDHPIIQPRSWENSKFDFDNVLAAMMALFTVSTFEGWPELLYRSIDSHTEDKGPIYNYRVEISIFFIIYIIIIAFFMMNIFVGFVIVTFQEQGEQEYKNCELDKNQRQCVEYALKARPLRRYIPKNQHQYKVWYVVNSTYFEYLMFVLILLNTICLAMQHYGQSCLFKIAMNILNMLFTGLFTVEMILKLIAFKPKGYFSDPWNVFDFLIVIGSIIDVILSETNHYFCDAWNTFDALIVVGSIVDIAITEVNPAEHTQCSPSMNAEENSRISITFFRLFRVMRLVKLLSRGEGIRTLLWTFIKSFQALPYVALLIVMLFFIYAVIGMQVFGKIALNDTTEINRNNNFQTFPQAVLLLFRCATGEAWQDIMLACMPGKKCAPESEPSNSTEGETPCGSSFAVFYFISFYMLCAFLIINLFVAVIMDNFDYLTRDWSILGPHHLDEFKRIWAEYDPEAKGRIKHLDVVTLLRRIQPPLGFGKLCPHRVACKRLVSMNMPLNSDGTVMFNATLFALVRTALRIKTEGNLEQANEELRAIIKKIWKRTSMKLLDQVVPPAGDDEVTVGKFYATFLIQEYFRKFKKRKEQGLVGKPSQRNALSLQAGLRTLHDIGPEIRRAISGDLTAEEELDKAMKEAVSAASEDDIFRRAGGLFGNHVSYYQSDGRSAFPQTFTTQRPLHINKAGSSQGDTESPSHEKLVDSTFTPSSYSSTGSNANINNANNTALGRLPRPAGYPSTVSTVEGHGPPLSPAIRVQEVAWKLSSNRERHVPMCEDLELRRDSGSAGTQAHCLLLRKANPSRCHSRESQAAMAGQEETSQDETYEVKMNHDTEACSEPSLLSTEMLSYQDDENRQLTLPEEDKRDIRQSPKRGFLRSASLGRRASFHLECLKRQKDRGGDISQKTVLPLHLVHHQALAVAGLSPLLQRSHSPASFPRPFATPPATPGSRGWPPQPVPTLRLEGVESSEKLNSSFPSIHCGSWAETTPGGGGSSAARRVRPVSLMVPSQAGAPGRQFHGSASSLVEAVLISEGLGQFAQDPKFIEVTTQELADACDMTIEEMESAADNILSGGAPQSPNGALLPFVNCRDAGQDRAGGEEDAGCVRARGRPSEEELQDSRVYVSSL
ASSAY_INFO: Displacement of [3H]-diltiazem from human Cav1.2 channel

O=C(Cn1cnccc1=O)Nc1ccc(C[C@@H]2CC[C@H]([C@H](O)c3ccccc3)N2)cc1 | > 30 µM
O=C(Cn1ccccc1=O)Nc1ccc(C[C@@H]2CC[C@H]([C@H](O)c3ccccc3)N2)cc1 | > 30 µM
O=C(Cn1cnc2ccccc2c1=O)Nc1ccc(C[C@@H]2CC[C@H]([C@H](O)c3ccccc3)N2)cc1 | 13 µM
C[C@@H](C(=O)Nc1ccc(C[C@@H]2CC[C@H]([C@H](O)c3cccnc3)N2)cc1)n1ncccc1=O | > 30 µM

Answer with IC50 of `O=S(=O)(Nc1ccc(CCNC[C@H](O)c2cccnc2)cc1)c1ccc(-c2nc(-c3ccc(C(F)(F)F)cc3)cs2)cc1` measured for Voltage-dependent L-type calcium channel subunit alpha-1C (Homo sapiens, UniProt Q13936).
1.7 µM

----------
ASSAY_INFO: Fraction unbound in rhesus monkey at 0.5 mg/kg, iv or 2 mg/kg, po
Type: ADME, organism-based, Macaca mulatta
DETAILS: in vivo
A collection of molecules and their measured fraction unbound
In your answer, state the number alone without any accompanying words.

State its fraction unbound for this molecule: `O=C(Cn1ncccc1=O)Nc1ccc(C[C@@H]2CC[C@H]([C@H](O)c3ccccc3)N2)cc1`
0.63

Give me measured fraction unbound, please, for this molecule: `C[C@@H](C(=O)Nc1ccc(C[C@@H]2CC[C@H]([C@H](O)c3ccccc3)N2)cc1)n1ncccc1=O`
0.71

Return the recorded fraction unbound value; entry: O=C(Nc1ccc(C[C@@H]2CC[C@H]([C@H](O)c3ccccc3)N2)cc1)[C@@H]1CCc2nccc(=O)n21 [VIBEGRON]
0.49

----------
ASSAY_INFO: Stability in rat plasma assessed as parent compound remaining at 24 hrs by LC-MS analysis
Assay type: ADME, cell-free
DETAILS: read-out: Stability
OUTCOME_MEASURE: remaining at 24 h (%)
# value in %; strip the unit string

O=C(Nc1ccc(C[C@@H]2CC[C@H]([C@H](O)c3ccccc3)N2)cc1)[C@@H]1CCc2nccc(=O)n21 | 100
C[C@@H](C(=O)Nc1ccc(C[C@@H]2CC[C@H]([C@H](O)c3ccccc3)N2)cc1)n1ncccc1=O | 95

Quote remaining at 24 h reported for `O=C(Nc1ccc(C[C@@H]2CC[C@H]([C@H](O)c3ccccc3)N2)cc1)[C@@H]1CCc2cccc(=O)n21` please.
92

Let me know recorded remaining at 24 h for `O=C(Nc1ccc(C[C@@H]2CC[C@H]([C@H](O)c3cccnc3)N2)cc1)[C@@H]1CCc2ccnn21` , thanks.
97

Please give the documented remaining at 24 h of `O=C(Nc1ccc(C[C@@H]2CC[C@H]([C@H](O)c3cccnc3)N2)cc1)[C@@H]1CCc2scnc21`
79

Answer with the recorded remaining at 24 h for the molecule listed here: `O=C(Cn1ncccc1=O)Nc1ccc(C[C@@H]2CC[C@H]([C@H](O)c3ccccc3)N2)cc1`
95

----------
ASSAY_INFO: Stability in dog plasma assessed as parent compound remaining at 24 hrs by LC-MS analysis
Assay type: ADME, cell-free, Canis lupus familiaris
DETAILS: read-out: Stability
OUTCOME_MEASURE: remaining at 24 h (%)
Your answer should be a plain number; it is taken to be in %.

Reference set (4 entries):
O=C(Nc1ccc(C[C@@H]2CC[C@H]([C@H](O)c3ccccc3)N2)cc1)[C@@H]1CCc2nccc(=O)n21 [VIBEGRON] | 100
O=C(Cn1ncccc1=O)Nc1ccc(C[C@@H]2CC[C@H]([C@H](O)c3ccccc3)N2)cc1 | 100
O=C(Nc1ccc(C[C@@H]2CC[C@H]([C@H](O)c3ccccc3)N2)cc1)[C@@H]1CCc2cccc(=O)n21 | 92
C[C@@H](C(=O)Nc1ccc(C[C@@H]2CC[C@H]([C@H](O)c3ccccc3)N2)cc1)n1ncccc1=O | 77

Output remaining at 24 h of `O=C(Nc1ccc(C[C@@H]2CC[C@H]([C@H](O)c3cccnc3)N2)cc1)[C@@H]1CCc2ccnn21`
100

----------
ASSAY_INFO: Drug recovery in bile duct cannulated rat urine at 10 mg/kg, po measured over 48 hrs
Format: ADME, organism-based
DETAILS: read-out: Drug recovery
OUTCOME_MEASURE: dose excreted at 48 h (%)
Numeric answer only, unit % assumed.

Quickly give me recorded dose excreted at 48 h for `O=C(Nc1ccc(C[C@@H]2CC[C@H]([C@H](O)c3ccccc3)N2)cc1)[C@@H]1CCc2nccc(=O)n21`
32

----------
ASSAY_TARGET: UniProt Q12809
Sequence (Q12809 whole entry): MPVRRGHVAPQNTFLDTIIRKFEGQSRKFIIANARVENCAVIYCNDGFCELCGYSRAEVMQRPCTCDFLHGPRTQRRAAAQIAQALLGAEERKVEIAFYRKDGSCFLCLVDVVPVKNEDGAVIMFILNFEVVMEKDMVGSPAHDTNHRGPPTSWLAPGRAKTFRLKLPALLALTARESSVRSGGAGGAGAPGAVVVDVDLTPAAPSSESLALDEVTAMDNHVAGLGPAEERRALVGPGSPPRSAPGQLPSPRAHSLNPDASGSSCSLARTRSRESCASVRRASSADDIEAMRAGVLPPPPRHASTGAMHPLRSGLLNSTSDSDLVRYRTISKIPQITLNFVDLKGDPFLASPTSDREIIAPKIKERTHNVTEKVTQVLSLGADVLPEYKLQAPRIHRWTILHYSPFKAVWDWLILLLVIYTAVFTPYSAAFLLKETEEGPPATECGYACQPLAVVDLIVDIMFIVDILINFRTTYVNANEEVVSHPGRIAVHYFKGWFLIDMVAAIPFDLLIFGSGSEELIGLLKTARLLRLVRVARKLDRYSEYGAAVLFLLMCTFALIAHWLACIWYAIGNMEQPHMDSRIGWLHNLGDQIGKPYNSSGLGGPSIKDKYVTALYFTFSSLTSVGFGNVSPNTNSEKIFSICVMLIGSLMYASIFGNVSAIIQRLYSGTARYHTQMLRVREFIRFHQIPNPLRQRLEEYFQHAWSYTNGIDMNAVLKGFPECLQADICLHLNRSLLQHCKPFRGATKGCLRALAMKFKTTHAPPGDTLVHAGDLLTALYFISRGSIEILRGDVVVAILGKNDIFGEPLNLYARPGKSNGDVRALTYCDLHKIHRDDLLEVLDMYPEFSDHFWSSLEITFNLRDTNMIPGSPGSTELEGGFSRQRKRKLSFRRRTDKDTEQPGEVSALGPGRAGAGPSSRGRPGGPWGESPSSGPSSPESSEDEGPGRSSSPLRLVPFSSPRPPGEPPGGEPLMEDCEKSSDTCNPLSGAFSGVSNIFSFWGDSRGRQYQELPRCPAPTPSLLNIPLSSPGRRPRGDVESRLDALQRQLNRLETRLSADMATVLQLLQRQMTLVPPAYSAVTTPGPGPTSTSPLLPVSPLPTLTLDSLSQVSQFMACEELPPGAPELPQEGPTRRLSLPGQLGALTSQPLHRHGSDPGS
The following compounds are shown together with reported IC50 values.

Here's what some known entries look like.
O=C(Cn1cnccc1=O)Nc1ccc(C[C@@H]2CC[C@H]([C@H](O)c3ccccc3)N2)cc1 | > 30 µM
O=C(Cn1cccnc1=O)Nc1ccc(C[C@@H]2CC[C@H]([C@H](O)c3ccccc3)N2)cc1 | > 30 µM
O=C(Nc1ccc(C[C@@H]2CC[C@H]([C@H](O)c3ccccc3)N2)cc1)[C@@H]1CCc2nccc(=O)n21 | > 30 µM
C[C@@H](C(=O)Nc1ccc(C[C@@H]2CC[C@H]([C@H](O)c3ccccc3)N2)cc1)n1ncccc1=O | > 30 µM
Nc1nc(CC(=O)Nc2ccc(C[C@@H]3CC[C@H]([C@H](O)c4ccccc4)N3)cc2)cs1 | 19 µM
O=C(Cn1ccccc1=O)Nc1ccc(C[C@@H]2CC[C@H]([C@H](O)c3ccccc3)N2)cc1 | > 30 µM
O=S(=O)(Nc1ccc(CCNC[C@H](O)c2cccnc2)cc1)c1ccc(-c2nc(-c3ccc(C(F)(F)F)cc3)cs2)cc1 | 0.22 µM

Given `C[C@@H](C(=O)Nc1ccc(C[C@@H]2CC[C@H]([C@H](O)c3cccnc3)N2)cc1)n1ncccc1=O` , report its IC50 on UniProt Q12809.
> 30 µM
